B1: FAM164C (parent)
chain: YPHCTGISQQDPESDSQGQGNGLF

Variants of: B1
Test: protein stability index of a GFP-peptide fusion (GPS, HEK-293T) (PSI 1-6); higher = more stable;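 note: lentivirally expressed fusions sorted by FACS into six bins by GFP to DsRed ratio, PSI derived from sequencing read proportions per bin multiplied by bin number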
Settings: c terminus: a fixed tail appended
protein stability index values by entry
reported-property: protein stability index

[[record]]
variant_key = "Q17R"
meas_value = 3.71

[[record]]
variant_key = "F24H"
meas_value = 4.81

[[record]]
variant_key = "P12L"
meas_value = 3.65

[[record]]
variant_key = "Q10Y"
meas_value = 3.07

[[record]]
variant_key = "S8Q"
meas_value = 3.95

[[record]]
variant_key = "G6R"
meas_value = 3.45

[[record]]
variant_key = "S8Y"
meas_value = 2.75

[[record]]
variant_key = "G20A"
meas_value = 3.12

[[record]]
variant_key = "Q10V"
meas_value = 3.74

[[record]]
variant_key = "Y1W"
meas_value = 4.43

[[record]]
variant_key = "N21L"
meas_value = 3.41

[[record]]
variant_key = "Q19W"
meas_value = 2.75

[[record]]
variant_key = "L23Q"
meas_value = 4.75

[[record]]
variant_key = "C4Y"
meas_value = 3.17

[[record]]
variant_key = "P12N"
meas_value = 3.48

[[record]]
variant_key = "P12H"
meas_value = 3.73

[[record]]
variant_key = "P12V"
meas_value = 3.96

[[record]]
variant_key = "S14N"
meas_value = 3.89

[[record]]
variant_key = "P2K"
meas_value = 4.51

[[record]]
variant_key = "P2I"
meas_value = 2.83

[[record]]
variant_key = "Y1N"
meas_value = 5.28

[[record]]
variant_key = "H3S"
meas_value = 3.07

[[record]]
variant_key = "T5R"
meas_value = 2.71

[[record]]
variant_key = "H3D"
meas_value = 4.48

[[record]]
variant_key = "Q19E"
meas_value = 4.21

[[record]]
variant_key = "D15E"
meas_value = 4.07

[[record]]
variant_key = "P12G"
meas_value = 3.45

[[record]]
variant_key = "L23N"
meas_value = 4.38

[[record]]
variant_key = "E13N"
meas_value = 3.23

[[record]]
variant_key = "N21R"
meas_value = 3.55

[[record]]
variant_key = "S8H"
meas_value = 3.65

[[record]]
variant_key = "H3E"
meas_value = 4.58

[[record]]
variant_key = "D15M"
meas_value = 2.9

[[record]]
variant_key = "F24G"
meas_value = 4.82

[[record]]
variant_key = "Y1G"
meas_value = 5.44

[[record]]
variant_key = "S8L"
meas_value = 3.35

[[record]]
variant_key = "P2W"
meas_value = 3.67

[[record]]
variant_key = "G18P"
meas_value = 3.83

[[record]]
variant_key = "E13V"
meas_value = 3.66

[[record]]
variant_key = "C4L"
meas_value = 4.36

[[record]]
variant_key = "Q19Y"
meas_value = 3.36

[[record]]
variant_key = "G18L"
meas_value = 3.42

[[record]]
variant_key = "G18I"
meas_value = 3.32

[[record]]
variant_key = "I7Q"
meas_value = 4.01

[[record]]
variant_key = "H3F"
meas_value = 4

[[record]]
variant_key = "Q19A"
meas_value = 3.87


Numbers sourced from the supplement of paper PMC10567573.
